# Tested on: Plasmodium falciparum
# Method: GSK_TCMDC: Inhibition of Plasmodium falciparum Dd2 in whole red blood cells, using parasite LDH activity as an index of growth. Test compounds present at 2uM
# Assay type: functional
Quantity Name: Inhibition (%)

[
  {
    "Compound": "Cc1c(C)n(C2CCCCC2)c2ncnc(OC3CCN(CC(=O)N4CCCC4)CC3)c12",
    "Unit": "%",
    "Measurement": 59
  },
  {
    "Compound": "CN(C(=O)C1(c2ccc(Cl)cc2)CC1)C1CCN(CCCCCNC(=O)/C=C/c2ccc(Cl)c(Cl)c2)CC1",
    "Unit": "%",
    "Measurement": 0
  },
  {
    "Compound": "Cc1ccccc1CNc1noc(-c2c(F)cccc2Cl)n1",
    "Unit": "%",
    "Measurement": 90
  },
  {
    "Compound": "CCCCC(N)COc1cccc2c(-c3ccncc3)c(-c3cccc(NC(=O)Nc4ccccc4)c3)nn12 (stereo not given)",
    "Unit": "%",
    "Measurement": 82
  },
  {
    "Compound": "Cc1ccc(Cl)cc1NC(=O)c1c(-c2ccccc2Cl)noc1C",
    "Unit": "%",
    "Measurement": 37
  },
  {
    "Compound": "CC(O)CNc1nc2ccccc2n1CC(=O)Nc1cccc(C(=O)Nc2cccc(C(F)(F)F)c2)c1 (stereo not given)",
    "Unit": "%",
    "Measurement": 95
  },
  {
    "Compound": "CN(C)CC1c2[nH]c3ccccc3c2CCN1C(=O)Nc1ccc(Cl)c(Cl)c1.Cl (stereo not given)",
    "Unit": "%",
    "Measurement": 32
  },
  {
    "Compound": "O=C(N[C@H]1CCN(Cc2ccc(OCCN3CCNCC3)c(Cl)c2)C1)c1ccc(Cl)c(Cl)c1.O=C(O)C(F)(F)F",
    "Unit": "%",
    "Measurement": 5
  },
  {
    "Compound": "O=C(Nc1ccc(-c2nc3ccccc3[nH]2)cc1)c1ccc([N+](=O)[O-])s1",
    "Unit": "%",
    "Measurement": 77
  },
  {
    "Compound": "NCc1ccc(-c2cccc(CNC3CCN(Cc4ccccc4)CC3)c2)cc1.O=C(O)C(F)(F)F",
    "Unit": "%",
    "Measurement": 50
  },
  {
    "Compound": "CCOc1ccc2c(=NN=Cc3cccc(Cl)c3)cc(C)[nH]c2c1",
    "Unit": "%",
    "Measurement": 34
  },
  {
    "Compound": "O=C(NCc1ccc(Cl)c(Cl)c1)c1ccc(-c2nc3ccc(F)cc3[nH]2)cc1",
    "Unit": "%",
    "Measurement": 9
  },
  {
    "Compound": "CC(C)(C)COc1ccc2c(N)n[nH]c2c1.Cl",
    "Unit": "%",
    "Measurement": 8
  },
  {
    "Compound": "CCC(CC)(Cc1ccccc1)NC(=O)[C@H](CC1CCCCC1)Nc1ccc(C#N)c2ccccc12.O=C(O)C(F)(F)F",
    "Unit": "%",
    "Measurement": 76
  },
  {
    "Compound": "COc1ccc2c(=O)c(I)c(C)[nH]c2c1",
    "Unit": "%",
    "Measurement": 96
  },
  {
    "Compound": "Nc1nnc(-c2ccc(Cl)c(Br)c2)c(N)n1",
    "Unit": "%",
    "Measurement": 0
  },
  {
    "Compound": "C=C(C)C1CC=C(CN2CCC(N3CCc4cc(NC(=O)c5cc(C)on5)ccc43)C2)CC1 (stereo not given)",
    "Unit": "%",
    "Measurement": 95
  },
  {
    "Compound": "COc1cc(NC(=O)CCCCCCCCN2CCN(C)CC2)c2ncccc2c1",
    "Unit": "%",
    "Measurement": 36
  },
  {
    "Compound": "Cc1cccc(OC2CCN(c3ncc(C(=O)NCCCN4CCCC4=O)cc3Cl)CC2)c1",
    "Unit": "%",
    "Measurement": 95
  },
  {
    "Compound": "Cc1cc2ncn(-c3nccc(NCc4cccnc4)n3)c2cc1C.O=C(O)C(F)(F)F",
    "Unit": "%",
    "Measurement": 98
  }
]

###

# Test system: HepG2
# Method: GSK_TCMDC: Percent inhibition of human HepG2 cell line. Test compounds present at 10uM.
# Type: functional
Rule: Inhibition of 20% or more gives 1; anything lower gives -1.

[
  {
    "Compound": "Cc1ccc(S(=O)(=O)NC2CCN(c3ccnc4cc(Cl)ccc34)C2)cc1.O=C(O)C(F)(F)F (centres undefined)",
    "Label Value": 1
  },
  {
    "Compound": "NC1CCN(Cc2ccc(-c3ccc(-c4nc5ccccc5[nH]4)cc3)cc2)C1.O=C(O)C(F)(F)F (centres undefined)",
    "Label Value": 1
  },
  {
    "Compound": "Oc1ccc2ccccc2c1CNCC1CCCCC1",
    "Label Value": -1
  },
  {
    "Compound": "CC(=O)Nc1nc(C(=O)Nc2ccc(-c3ccc(-c4nc5cc(F)ccc5[nH]4)cc3)cc2)cs1",
    "Label Value": -1
  },
  {
    "Compound": "N=C(N)c1ccc(Oc2ccc(C(=N)N)cc2)cc1.O=S(=O)(O)CCO",
    "Label Value": -1
  },
  {
    "Compound": "Clc1ccc(-c2csc3ncnc(Cl)c23)cc1",
    "Label Value": -1
  },
  {
    "Compound": "CNCCNCc1ccc(-c2ccc(-c3nc4cc(F)ccc4[nH]3)s2)cc1.O=C(O)C(F)(F)F",
    "Label Value": 1
  },
  {
    "Compound": "CN1CCN(c2ncnc3ccc(NC(=O)Nc4ccc(Cl)c(Cl)c4)cc23)CC1",
    "Label Value": -1
  },
  {
    "Compound": "CC(=O)Nc1ccc(C(=O)Nc2cccc(-c3cccc(-c4nc5cc(F)ccc5[nH]4)c3)c2)cn1",
    "Label Value": -1
  },
  {
    "Compound": "O=C(Nc1cccc(C(F)(F)F)c1)c1cccc(S(=O)(=O)NC2CCN(CC3CCCCC3)C2)c1.O=C(O)C(F)(F)F (centres undefined)",
    "Label Value": 1
  },
  {
    "Compound": "O=C(Nc1cccc(CN2CCCN(Cc3ccc(O)cc3)CC2)c1)c1ccc(Br)cc1.O=C(O)C(F)(F)F",
    "Label Value": -1
  },
  {
    "Compound": "Clc1ccc(CNc2ccnc(NCc3cccnc3N3CCCC3)n2)c(Cl)c1",
    "Label Value": 1
  },
  {
    "Compound": "O=C(NC1CCN(Cc2ccccc2)CC1)c1cc(-c2ccncc2)c(-c2ccc(Cl)c(O)c2)o1.O=C(O)C(F)(F)F",
    "Label Value": -1
  },
  {
    "Compound": "COc1ccc(N2CCN(CCCNC(=O)c3ccc(NC(=O)c4cc(Cl)cc(Cl)c4)cc3)CC2)c(OC)c1",
    "Label Value": 1
  },
  {
    "Compound": "CC(=O)O.CCC[C@@H]([C@@H](CC1CCCCC1)C(=O)N[C@H](C(=O)Nc1nccc(N)n1)C(C)(C)C)N(O)C=O",
    "Label Value": 1
  },
  {
    "Compound": "O=S(=O)(c1c(Cl)cc(Cl)cc1Cl)N1CCCCC(c2ccc(C(F)(F)F)cc2)=N1",
    "Label Value": -1
  },
  {
    "Compound": "COc1ccc(C=Cc2cc(=N)c3ccccc3[nH]2)cc1.I",
    "Label Value": 1
  },
  {
    "Compound": "COC(=O)c1ccc(CCCNCC(O)c2cccc(C(F)(F)F)c2)cc1 (centres undefined)",
    "Label Value": -1
  },
  {
    "Compound": "CNCCCNc1ccnc2cc(Cl)ccc12",
    "Label Value": -1
  }
]

###

Readings of Inhibition for the listed compounds
# Tested on: HepG2
# Method: GSK_TCMDC: Percent inhibition of human HepG2 cell line. Test compounds present at 10uM.
# Type: functional

[
  {
    "Compound": "O=C(COc1ccc(F)cc1)NC1CCN(c2ccnc3cc(Cl)ccc23)C1.O=C(O)C(F)(F)F (stereo not given)",
    "Unit": "%",
    "Inhibition": 24
  },
  {
    "Compound": "CN1CCN(c2ccc(Nc3c4ccccc4nc4ccccc34)cc2)CC1",
    "Unit": "%",
    "Inhibition": 0
  },
  {
    "Compound": "CC(CN(C)C)C(=O)Nc1ccc(-c2csc(-c3nc4ccccc4[nH]3)c2)cc1 (stereo not given)",
    "Unit": "%",
    "Inhibition": 28
  },
  {
    "Compound": "COc1cccc(C2=CC(C)(C)Oc3cc(OCCN(C)C)ccc32)c1.Cl",
    "Unit": "%",
    "Inhibition": 57
  },
  {
    "Compound": "COc1cc2c(cc1C(F)(F)F)N(C(=O)Nc1cc(-c3ccncc3)cc(-c3cccnc3)c1)CC2",
    "Unit": "%",
    "Inhibition": 64
  },
  {
    "Compound": "SC(=Nc1ccc2c(c1)OCCO2)NN=Cc1ccccn1",
    "Unit": "%",
    "Inhibition": 55
  },
  {
    "Compound": "CCN(CC)CCNc1c2ccc(Cl)cc2nc2ccc(OC)nc12.Cl",
    "Unit": "%",
    "Inhibition": 20
  },
  {
    "Compound": "Cc1cccc2nc(-c3ccc(-c4cccc(CNCc5cnn(-c6ccccc6)n5)c4)s3)[nH]c12.O=C(O)C(F)(F)F",
    "Unit": "%",
    "Inhibition": 40
  },
  {
    "Compound": "CCNc1cc(C)nc(Nc2ccc(NC(=O)c3c(F)cccc3Cl)cc2)n1",
    "Unit": "%",
    "Inhibition": 49
  },
  {
    "Compound": "CC(=O)NC(c1cccs1)c1cc(Cl)c2cccnc2c1O (stereo not given)",
    "Unit": "%",
    "Inhibition": 65
  }
]
